- Measurement target: DaArgC (Denitrovibrio acetiphilus, UniProt D4H3H4, G182V/L233I/S178V)
- Construct: dimer
- Sequence (D4H3H4 entry or part of it S178V/G182V/L233I): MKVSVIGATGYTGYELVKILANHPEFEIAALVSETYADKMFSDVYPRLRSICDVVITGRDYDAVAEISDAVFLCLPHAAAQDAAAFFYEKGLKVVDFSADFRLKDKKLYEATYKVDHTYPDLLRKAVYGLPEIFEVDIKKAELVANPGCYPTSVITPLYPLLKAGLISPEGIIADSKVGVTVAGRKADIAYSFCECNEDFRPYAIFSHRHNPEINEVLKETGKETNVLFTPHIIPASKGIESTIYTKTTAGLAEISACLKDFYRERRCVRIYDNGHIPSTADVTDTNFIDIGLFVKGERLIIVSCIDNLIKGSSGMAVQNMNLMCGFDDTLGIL
- Method description: Nash assay of formaldehyde, inhibition of formyl phosphate reductase activity; coupled to EcAckA
- Assay conditions: read-out: N-acetyl-γ-glutamate / IC50
Experimental readout: pIC50
Give only the number. pIC50 is defined as minus log10 of concentration in molar units.

Lookup: Dear colleague, I am looking for the recorded pIC50 of the following compound: CC(=O)N[C@@H](CCC(=O)O)C(=O)O [N-acetyl-γ-glutamate]
Found: 1.61
